Measurement Target: T1, full-length beta-catenin (UniProt P35222 2-781, limits assumed)
T1 construct: mature; also called full-length ß-Catenin; β-catenin
T1 sequence (looked up): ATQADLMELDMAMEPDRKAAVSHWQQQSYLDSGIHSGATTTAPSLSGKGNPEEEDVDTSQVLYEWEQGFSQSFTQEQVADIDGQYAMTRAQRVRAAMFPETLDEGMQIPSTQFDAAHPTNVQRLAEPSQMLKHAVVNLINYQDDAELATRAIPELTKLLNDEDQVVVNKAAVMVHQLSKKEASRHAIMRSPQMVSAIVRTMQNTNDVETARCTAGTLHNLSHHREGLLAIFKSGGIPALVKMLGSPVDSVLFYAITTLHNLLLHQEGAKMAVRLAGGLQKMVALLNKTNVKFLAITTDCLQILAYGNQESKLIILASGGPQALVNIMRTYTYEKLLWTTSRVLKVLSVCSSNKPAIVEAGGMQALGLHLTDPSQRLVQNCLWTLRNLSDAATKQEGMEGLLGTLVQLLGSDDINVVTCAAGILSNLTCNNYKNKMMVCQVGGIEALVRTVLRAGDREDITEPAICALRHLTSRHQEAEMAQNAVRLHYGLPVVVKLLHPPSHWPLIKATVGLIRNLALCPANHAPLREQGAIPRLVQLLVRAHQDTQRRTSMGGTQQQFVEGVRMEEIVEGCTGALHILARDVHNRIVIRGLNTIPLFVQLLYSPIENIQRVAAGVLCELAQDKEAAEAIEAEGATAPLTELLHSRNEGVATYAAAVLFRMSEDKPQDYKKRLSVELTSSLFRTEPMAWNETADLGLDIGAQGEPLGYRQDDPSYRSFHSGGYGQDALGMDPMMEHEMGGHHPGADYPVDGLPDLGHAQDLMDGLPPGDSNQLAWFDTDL
Procedure Details: competition FP, grade of FP EC50 (+: 500-5000 nM)
Numbered stars: 1 amine (or outer) side, 2 acyl side, 3 side chain; on linkers, the order of the positions; unused ones are H or OH. Bridge positions count the residues as written; N and C are the ends. Square brackets hold non-standard residues; d marks the D form. MI = Monomer I = ReN, acyclic amine-bearing olefin stapling residue; R6 = (R)-2-(5-hexenyl)alanine, C=CCCCC[C@@](C)(N[*:1])C(=O)[*:2]; MA = Monomer A (Az), N-Alloc azetidine stapling residue; R5 = C=CCCC[C@@](C)(N)C(=O)O
Assay Metric: FP EC50

# Binder, Measured
measured = [
    ("Ac-PQ[R5]ILD[MI]HVRRVWR-NH2 (staple 3-7; also: carbamate staple (-N(R')-C(O)-O-) by ring-closing olefin metathesis) [FP0777c]", "500 to 5000 nM"),
]

Turning now to a further binder:
Noted for Ac-PQ[MA]ILD[R6]HVRRVWR-NH2 (staple 3-7; also: amino staple: CO2 extruded from MA carbamate staple with Pd(PPh3)4, also called FP-0725 (amino staple)) [FP0725a] : its FP EC50 reads 500 to 5000 nM
